System: IL-2-stimulated HEK-Blue IL-2 reporter cells
procedure.summary: HEK-Blue IL-2 reporter assay (STAT5-inducible SEAP) for determining selectivity
Type: cell-based
condition.notes: 4 ng/mL human recombinant IL-2, 24 hours
reported.metric: IC50

[
  {
    "compound": "Cn1cc2c(n1)-c1cccc(Nc3cc(Nc4ccc(F)cn4)nnc3C(N)=O)c1OC2 [Compound 8]",
    "measured": "0.3 to 1 µM"
  },
  {
    "compound": "[2H]C([2H])([2H])NC(=O)c1nnc(NC(=O)C2CC2)cc1Nc1nccc2c1N(C)C([2H])([2H])c1cc(C)nn1-2 [Compound 73]",
    "measured": "> 1 µM"
  },
  {
    "compound": "CN1Cc2cn(C)nc2-c2cccc(Nc3cc(NC(=O)C4CC4)nc4[nH]n(C)c(=O)c34)c21 [Compound 89]",
    "measured": "> 1 µM"
  },
  {
    "compound": "[2H]C([2H])([2H])NC(=O)c1cnc(N2CCN(C(C)C)C2=O)cc1Nc1cccc2c1N(C)Cc1cn(C)nc1-2 [Compound 61]",
    "measured": "> 1 µM"
  },
  {
    "compound": "[2H]C([2H])([2H])NC(=O)c1cnc(Nc2cc(C)nc(C)n2)cc1Nc1cccc2c1OCc1cn(C)nc1-2 [Compound 9]",
    "measured": "> 1 µM"
  },
  {
    "compound": "[2H]C([2H])([2H])NC(=O)c1cnc(NC(=O)[C@H]2C[C@H]2F)cc1Nc1cccc2c1N(C)Cc1cn(C)nc1-2 (single isomer, unassigned) [Compound 32]",
    "measured": "> 1 µM"
  },
  {
    "compound": "COC(=O)c1cnc(NC(=O)C2CC2)cc1Nc1cccc2c1N(C)Cc1cn(C)nc1-2 [Compound 60]",
    "measured": "> 1 µM"
  },
  {
    "compound": "CNC(=O)c1nnc(Nc2ccc(F)cn2)cc1Nc1cccc2c1OCc1cn(C)nc1-2 [Compound 1]",
    "measured": "0.3 to 1 µM"
  },
  {
    "compound": "[2H]C([2H])([2H])NC(=O)c1nnc(NC(=O)C2CC2)cc1Nc1nccc2c1N(C)C([2H])([2H])c1cn(C)nc1-2 [Compound 72]",
    "measured": "0.3 to 1 µM"
  },
  {
    "compound": "[2H]C([2H])([2H])NC(=O)c1cnc(NC(=O)C2CC2)nc1Nc1cccc2c1N(C)Cc1cn(C)nc1-2 [Compound 22]",
    "measured": "> 1 µM"
  },
  {
    "compound": "[2H]C([2H])([2H])NC(=O)c1cnc(NC(=O)C2CC2)cc1Nc1nccc2c1N(C([2H])([2H])[2H])Cc1cn(C)nc1-2 [Compound 66]",
    "measured": "> 1 µM"
  },
  {
    "compound": "[2H]C([2H])([2H])NC(=O)c1cnc(NC(=O)C2CC2)cc1Nc1cccc2c1N(C([2H])([2H])[2H])Cc1cn(C)nc1-2 [Compound 26]",
    "measured": "> 1 µM"
  },
  {
    "compound": "[2H]C([2H])([2H])NC(=O)c1cnc(NC(=O)C2CC2)cc1Nc1nccc2c1N(C)C([2H])([2H])c1cc(C)nn1-2 [Compound 76]",
    "measured": "> 1 µM"
  },
  {
    "compound": "[2H]C([2H])([2H])NC(=O)c1nnc(NC(=O)C2CC2)cc1Nc1cccc2c1N(C([2H])([2H])[2H])Cc1cn(C)nc1-2 [Compound 28]",
    "measured": "0.3 to 1 µM"
  }
]
